Assignment: determine reported TGI for the given compounds.
System: A498 renal
assay: NCI tumour cell line growth inhibition, 48 h

C[C@]12CC(c3ccccc3O1)C(C(=O)Nc1nc(C34CC5CC(CC(C5)C3)C4)cs1)C(=O)N2 (stereo not given in full)    > 100 µM
O=C(CC1C=Cc2ccccc2N1C(=O)c1ccccc1)c1ccccc1 (stereo not given)    93.5 µM
Cc1[nH]c2cc(F)ccc2c1-c1nc2c3cccnc3c3ncccc3c2[nH]1    1.06 µM
CC(C)c1ccccc1SCc1cc(=O)cc(CSc2ccccc2C(C)C)o1    40.9 µM

Now take the following compound into account.
Challenge: Consider the compound CCC1(CN(C)C)CC/C(=C\c2ccc(OC)c(OC)c2)C1=O (stereo not given) and give its measured TGI.
Response given: > 100 µM

---

System: M19-MEL melanoma
assay: NCI tumour cell line growth inhibition, 48 h
So I've got a bunch of compounds here, and I need their TGI values.

Example entries and their recorded answers appear below.
Cn1cc(C(=O)c2ccccc2)cc(C(=O)c2ccccc2)c1=O    > 100 µM
O=C(CCCN1CCC(C(O)c2ccc(F)cc2)CC1)c1ccc(F)cc1 (stereo not given)    115 µM
COc1ccc(NC(=O)CC(=O)n2nc(C)c(N=Nc3ccccc3C(=O)O)c2C)cc1    > 100 µM
NC(=S)N1N=C2c3ccccc3CC[C@H]2[C@@H]1c1ccc(Cl)cc1    > 100 µM

Challenge: Requested read-out: TGI. Entry: O=C1CCCCC12CCC/C2=N\O (stereo not given)
Response given: > 100 µM

---

System: HL-60(TB) leukemia
assay: NCI tumour cell line growth inhibition, 48 h; in the data active = GI50 below about 0.43 µM; inactive = the rest
Pick one: YES = active, NO = inactive

Recorded results for 2 compounds are shown here.
COc1ccc(-c2c3c(nc4n[nH]c(-c5ccc(Cl)cc5)c24)-c2ccccc2C(=O)C3=O)cc1    NO
COC(=O)[C@H](Cc1cn(C)cn1)NC(=O)[C@H](C)NC(=O)Nc1cc(C(F)(F)F)cc(C(F)(F)F)c1    NO

Challenge: Record request — test call for "CC([O-])=C1C(=O)c2ccccc2C1=O.CC([O-])=C1C(=O)c2ccccc2C1=O.CC[O-].CC[O-].[Ti+4]"
Response given: NO

Challenge: Would you mind telling me which call this test gave "CCCCNc1ccc(Nc2ccccc2)cc1" ?
Response given: NO

Challenge: Please let me know the test result on file for CCCCOC1OC(COC(=O)C(C)C)C(OC(=O)C(C)C)C(O)C1OC1OC(C)C(OC(=O)CCC)C(OC(=O)C(C)C)C1O (stereo not given) .
Response given: NO

---

So I've got a bunch of compounds here, and I need their TGI values.
Test system: MOLT-4 leukemia
assay: NCI tumour cell line growth inhibition, 48 h

Please review the following examples before continuing.
COC(=O)Cc1cc(=O)[nH]c2c1C(=O)CCC2    > 100 µM
Cc1ccc(C2NC(=O)c3ccccc3N2)c(C)c1 (configuration not stated)    > 100 µM
COC(=O)c1cc(OC)c(OC)c(OC)c1-c1cc2c(cc1C=O)OCO2    > 10 µM
CCCCCCCCCCCCCC[n+]1ccc(C)cc1    2.65 µM

For each listed entry, give its TGI.
1. CC1(C)O[C@@H]2C[C@H]3[C@@H]4C[C@H](F)C5=CC(=O)C=C[C@]5(C)[C@@]4(F)[C@@H](O)C[C@]3(C)[C@]2(C(=O)CO)O1
2. O=c1[nH]c(=O)n(COCc2ccccc2)cc1Nc1ccc(Br)cc1

Response given:
1. > 100 µM
2. > 100 µM

---

Test system: HCT-116 colon
assay: NCI tumour cell line growth inhibition, 48 h
Would you kindly list TGI for each of these compounds?

Value sought for every listed compound: TGI.
1. CCCCCCCCCCCCCCCCNc1ccn(C2CC(O)C(COC(c3ccccc3)(c3ccccc3)c3ccc(OC)cc3)O2)c(=O)n1 (configuration not stated)
2. CC(=O)O[C@H]1CC[C@@]2(C)C(=C/C(=N/OCCN3CCCC3)[C@H]3[C@@H]4CC[C@H](OC(C)=O)[C@@]4(C)CC[C@@H]32)C1
3. c1ccc2c(c1)cc1n2CCc2c-1[nH]c1ccccc21

Response given:
1: > 100 µM; 2: > 100 µM; 3: > 10 µM

Provide reported TGI for each item, in the same order as listed.
1. CCCCCCNCc1cc(C(C)(C)C)cc(CNCCCCCC)c1O
2. CC1(C)Cc2c(Br)c(Br)c(Br)c(OCC(O)CN3CCN(c4ccccn4)CC3)c2O1 (configuration not stated)
3. O=C1CSC(c2cccc(Cl)c2)N1c1ccc(-c2ccc(-n3c(-c4ccccc4)nc4ccccc4c3=O)cc2)cc1 (configuration not stated)
4. CC(C)(NC(=O)OCc1ccccc1)C(=O)OC(=O)C(C)(C)NC(=O)OCc1ccccc1
5. C=Cn1c([N+](=O)[O-])cnc1/C=C/c1ccc(C(=O)OCCN2CCOCC2)cc1
6. COC(=O)c1cc(OC)c(OC)c(OC)c1-c1cc2c(cc1C=O)OCO2
7. C[C@@H](CO)NC(=O)c1cc(-c2ccc(Cl)cc2)nn(-c2cnn(C)c2)c1=O
8. O=C(/C=C(\C(=O)c1cccs1)c1cccs1)c1ccc(C(=O)/C=C(\C(=O)c2cccs2)c2cccs2)cc1

Response given:
3.07 µM
23.5 µM
> 100 µM
> 100 µM
> 100 µM
> 10 µM
> 100 µM
> 100 µM

Provide TGI values for the following items, in order.
1. CCOc1ccc2c(c1)c(CC(=O)O)cn2C
2. Cc1nc2cc(Nc3nc(Nc4ccc(F)cc4)nc(N4CCOCC4)n3)ccc2n1Cc1ccccc1

Response given:
["> 100 µM", "4 µM"]

Hello, I would appreciate it if you could give TGI for each entry below.
1. O=C(O)/C=C/c1c[nH]c(=O)[nH]c1=O
2. O=C(NCCCl)SCCO
3. COC1(CC[C@@H](C)COC2OC(CO)C(O)C(O)C2O)O[C@H]2C[C@H]3[C@@H]4CC=C5C[C@@H](OC6OC(CO)C(O)C(OC7OC(CO)C(O)C(O)C7O)C6OC6OC(C)C(O)C(O)C6O)CC[C@]5(C)[C@H]4CC[C@]3(C)[C@H]2[C@@H]1C (some centres not stated)
4. CCCCOC1OC(COC(=O)C(C)C)C(OC(=O)C(C)C)C(O)C1OC1OC(C)C(OC(=O)CCC)C(OC(=O)C(C)C)C1O (configuration not stated)
5. C/C(N=NS(=O)(=O)c1ccc([N+](=O)[O-])cc1)=C1\C=CC=CN1O
6. C/C(=C/CC[C@]1(CO)CC[C@]2(C)[C@H](CC[C@@H]3[C@@]4(C)CC[C@H](OC5OC(CO)C(O)C(O)C5OC5OC(CO)C(O)C(O)C5O)C(C)(C)[C@@H]4CC[C@]32C)[C@H]1O)CO (some centres not stated)

Response given:
1: > 500 µM; 2: > 100 µM; 3: 34.9 µM; 4: 18.4 µM; 5: > 100 µM; 6: > 100 µM

---

Test system: RPMI-8226 leukemia
assay: NCI tumour cell line growth inhibition, 48 h
Would you mind telling me the reported TGI of each entry?

O=C1CN(c2cccc(Cl)c2)C(=O)CN1NCNN1CC(=O)N(c2cccc(Cl)c2)CC1=O    > 100 µM
O=C(SCc1cccc2ccccc12)c1ccc(Cl)cc1    > 100 µM
COc1cc(OC)c2c(c1)OC(c1cccnc1)C(c1ccccc1)C2=O (stereo unspecified)    > 100 µM

Look up TGI for the entries below, preserving their order.
1. N#CC1=C(O)NC(O)=C(C#N)C1c1ccc(C2C(C#N)=C(O)NC(O)=C2C#N)cc1
2. Cl.Fc1c[c-]c(-c2ccccn2)c(F)c1.[Pt].c1ccc([PH+](C[PH+](c2ccccc2)c2ccccc2)c2ccccc2)cc1
3. CCCCCCCCCCCCCCCCNc1ccn(C2CC(O)C(COC(c3ccccc3)(c3ccccc3)c3ccc(OC)cc3)O2)c(=O)n1 (stereo unspecified)
4. CC1OC2OC3C(OCC(O)C3O)OC(=O)[C@]34CCC(C)(C)CC3C3=CCC5[C@@]6(C)C[C@H](O)[C@H](OC7OC(CO)C(O)C(O)C7OC7OCC(OC(=O)CC(C)(O)CC(=O)OC1C(O)C2O)C(O)C7O)[C@@](C)(CO)C6CC[C@@]5(C)[C@]3(C)CC4 (stereo partly specified)
5. CCCCNc1ccc(Nc2ccccc2)cc1
6. C/C(=N\O)c1cccc[n+]1Cc1ccccc1

Response given:
1. > 100 µM
2. 0.544 µM
3. > 100 µM
4. 17.7 µM
5. 4.86 µM
6. > 100 µM

Batch of 2 compounds: report TGI for each.
1. COc1ccc(NC(=O)CC(=O)n2nc(C)c(N=Nc3ccccc3C(=O)O)c2C)cc1
2. O=C1/C(=C/c2ccc(O)cc2)COc2ccc(O)c(O)c21

Response given:
["> 100 µM", "3.68 µM"]
